Measured values drawn from ChEMBL document CHEMBL2346561 for this set.

experiment: Displacement of [3H]KA from KA receptor in rat cortical synaptosomes; assay type: subcellular, Brain
pKi: −log10 of the molar value.
assay_readout: pKi

Hi, could you look up pKi for each item in my list?
1. CCCc1cnn(O)c1[C@@H](N)C(=O)O
2. CCCC[C@]1(C(=O)O)C[C@H]1[C@H](N)C(=O)O
3. NC(C(=O)O)c1ccnn1O (racemic)

Result:
1. < 4.00
2. < 4.00
3. < 4.00
